# ASSAY NAME: Half-life of compound in Balb/c mice following an oral dose of 90 mg/kg
# MEASUREMENT SETUP: Balb/c mouse, in vivo
READOUT: half-life (h)

1) CS(=O)(=O)N1Cc2cc(Br)ccc2N(Cc2cnc[nH]2)C[C@H]1Cc1ccccc1 | 1.2

###

# MEASURED TARGET: Protein farnesyltransferase (Homo sapiens, UniProt P49354+P49356)
# ASSAY NAME: Inhibition of purified recombinant human farnesyltransferase (FT)
READOUT: IC50 (nM)

1) O=C(c1cccc2ccccc12)N1Cc2ccccc2N(Cc2c[nH]cn2)CC1Cc1ccccc1 (stereo not given) | 276
2) CS(=O)(=O)N1Cc2cc(Br)ccc2N(Cc2c[nH]cn2)CC1Cc1cccc(Cl)c1 (stereo not given) | 24
3) CS(=O)(=O)N1Cc2cc(Br)ccc2N(Cc2cnc[nH]2)CC1CCc1ccccc1 (stereo not given) | 45
4) CCCS(=O)(=O)N1Cc2cc(C#N)ccc2N(Cc2cnc[nH]2)C[C@H]1Cc1ccccc1 | 1.77
5) CN(C)C(=O)N1Cc2cc(C#N)ccc2N(Cc2c[nH]cn2)C[C@H]1Cc1ccccc1 | 17
